target: rat frizzled-2 receptor (rat, UniProt Q08464 29-570); experiment: cell-based or functional assay
Sequence (Q08464 29-570): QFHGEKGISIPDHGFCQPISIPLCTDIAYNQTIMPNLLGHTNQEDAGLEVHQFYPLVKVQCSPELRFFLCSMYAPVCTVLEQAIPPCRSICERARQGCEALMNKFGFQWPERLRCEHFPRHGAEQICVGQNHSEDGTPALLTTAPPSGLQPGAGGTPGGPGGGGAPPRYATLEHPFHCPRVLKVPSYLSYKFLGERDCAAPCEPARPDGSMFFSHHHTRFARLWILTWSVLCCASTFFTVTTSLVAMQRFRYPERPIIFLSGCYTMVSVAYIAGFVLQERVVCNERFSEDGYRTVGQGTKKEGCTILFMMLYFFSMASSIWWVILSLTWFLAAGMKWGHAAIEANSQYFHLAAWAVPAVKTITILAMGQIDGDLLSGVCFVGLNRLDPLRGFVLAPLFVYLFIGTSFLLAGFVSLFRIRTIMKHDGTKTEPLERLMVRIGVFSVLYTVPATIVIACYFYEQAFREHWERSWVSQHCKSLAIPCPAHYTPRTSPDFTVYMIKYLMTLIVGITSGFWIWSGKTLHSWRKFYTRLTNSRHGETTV
Where no end group is shown, it is not given here.
Entries and their measured % of inhibition of Wnt3a-induced luciferase activity, peptide 1.10^-9 M follow.
metric-name: % of inhibition of Wnt3a-induced luciferase activity, peptide 1.10^-9 M

binder	measured-value
CNKTAEGMDGCEL-NH2 (cysteine pairing not given here) [UM206 (5 S = A)]	87.3%
CNKTSEAMDGCEL-NH2 (cysteine pairing not given here) [UM206 (7 G = A)]	63.1%
CNATSEGMDGCEL-NH2 (cysteine pairing not given here) [UM206 (3 K = A)]	84.9%
ANKTSEGMDGAEL [UM206 (C = A)]	8.39%
CNKTSEGADGCEL-NH2 (cysteine pairing not given here) [UM206 (8 M = A)]	85%
CNKTSEGMDGCAL-NH2 (cysteine pairing not given here) [UM206 (12 E = A)]	85.5%
